assay: Acute toxicity LD50, oral, in mice; conditions: mouse, in vivo, po
Reported LD50 values are given for each entry in this list.

MOLECULE: CN1CCN(C[C@H]2C(=O)Nc3ccccc3S[C@H]2c2ccccc2)CC1 (single isomer, unassigned) [(-) Form]
UNIT_NAME: mg/kg
LD50: 870
--
MOLECULE: CN1CCN(C[C@H]2C(=O)Nc3ccccc3S[C@H]2c2ccccc2)CC1 (relative stereo) [Racemic Mixture]
UNIT_NAME: mg/kg
LD50: 650

====

experiment: Acute toxicity LD50, intravenous, in mice; settings: mouse, in vivo, iv

COMPOUND: CN1CCN(C[C@H]2C(=O)Nc3ccccc3S[C@H]2c2ccccc2)CC1 (relative stereo) [Racemic Mixture]
LD50 / mg/kg: 65
//
COMPOUND: CN1CCN(C[C@H]2C(=O)Nc3ccccc3S[C@H]2c2ccccc2)CC1 (single isomer, unassigned) [(-) Form]
LD50 / mg/kg: 160
